The measured values listed here are drawn from patent US9657057B2.

System: c20S (constitutive 20S proteasome) (Homo sapiens, UniProt P20618+P28074)
Assay Remarks: 20S proteasome assay, chymotrypsin-like activity (LLVY), c20S
Type: biochemical
Conditions: LLVY c20S Hu 1 h CONT: IC50 (nM), succinyl-Leu-Leu-Val-Tyr-AMC
Property Name: IC50 (nM)

(a) COc1ccc(C[C@H](NC(=O)[C@H](C)NC(=O)C(F)(F)F)C(=O)N[C@@H](Cc2ccccc2)C(=O)[C@@]2(C)CO2)cc1
(b) COc1ccc(C[C@H](NC(=O)[C@@H](C)NC(=O)CC(C)(C)O)C(=O)N[C@@H](Cc2ccccc2)C(=O)[C@@]2(C)CO2)cc1
(c) COc1ccc(C[C@H](NC(=O)[C@H]2CCCC(=O)N2)C(=O)N[C@@H](Cc2ccccc2)C(=O)[C@@]2(C)CO2)cc1
Lookup: # rank by IC50, ascending (min first) Write the labels in rank order as requested.
Found: a, b, c
(a: 68.6 nM, b: 191 nM, c: 87800 nM)

(a) COc1ccc(C[C@H](NC(=O)[C@@H](C)NC(=O)C2=C(C)c3ccccc3C2)C(=O)N[C@@H](CC2CCCC2)C(=O)[C@@]2(C)CO2)cc1
(b) COc1ccc(C[C@H](NC(=O)[C@H](C)NC(=O)CCO)C(=O)N[C@@H](Cc2ccccc2)C(=O)[C@@]2(C)CO2)cc1
Lookup: Parameter check: reported IC50 is higher for which label, a or b ? Please identify the chosen entry by its label.
Found: a
(a: 4610 nM, b: 262 nM)

====

System: i20S (20S immunoproteasome) (Homo sapiens, UniProt P20618+P28062)
Assay Remarks: 20S proteasome assay, chymotrypsin-like activity (LLVY), i20S
Type: biochemical
Conditions: LLVY i20S Hu 1 h CONT: IC50 (nM), succinyl-Leu-Leu-Val-Tyr-AMC
Property Name: IC50 (nM)

Smiles Code	System	Reported Result
COc1ccc(C[C@H](NC(=O)[C@@H](C)NC(=O)c2ccno2)C(=O)N[C@@H](CC2CCCC2)C(=O)[C@@]2(C)CO2)cc1	i20S (20S immunoproteasome) (Homo sapiens, UniProt P20618+P28062)	1400

(I) COc1ccc(C[C@H](NC(=O)[C@@H](C)NC(=O)c2ccncc2)C(=O)N[C@@H](CC2CCCC2)C(=O)[C@@]2(C)CO2)cc1
(II) COCCC(=O)N[C@@H](C)C(=O)N[C@@H](Cc1ccc(OC)cc1)C(=O)N[C@@H](CC1CCCC1)C(=O)[C@@]1(C)CO1
Lookup: Kindly identify the item with the lower IC50 figure among these two: I and II // return label of chosen record
Found: II

====

System: LMP7 (Homo sapiens, UniProt P20618+P28062)
Construct: endogenous in cells; host or cells: MOLT-4
Assay Remarks: ProCISE proteasome subunit assay, LMP7
Type: biochemical
Conditions: ProCISE LMP7 MOLT4 lysate Hu 1 h CONT: IC50 (nM)
Property Name: IC50 (nM)

Smiles Code	Reported Result
COc1ccc(C[C@H](NC(=O)[C@H](C)NC(=O)C2=C(C)c3ccccc3C2)C(=O)N[C@@H](Cc2ccccc2)C(=O)[C@@]2(C)CO2)cc1	45.8
COc1ccc(C[C@H](NC(=O)[C@@H](C)NC(=O)C2=C(C)c3ccccc3C2)C(=O)N[C@@H](Cc2ccccc2)C(=O)[C@@]2(C)CO2)cc1	48.6

====

System: LMP7 (Homo sapiens, UniProt P20618+P28062)
Construct: endogenous in cells; host or cells: MOLT-4
Assay Remarks: ProCISE proteasome subunit assay, LMP7
Type: biochemical
Conditions: MOLT4 lysate Hu 1 h
pIC50: −log10 of the molar value.
Property Name: pIC50

Smiles Code	Property Name	Reported Result
COc1ccc(C[C@H](NC(=O)[C@H]2CCCC(=O)N2)C(=O)N[C@@H](Cc2ccccc2)C(=O)[C@@]2(C)CO2)cc1	pIC50	5.34

(P) C[C@@H](NC(=O)CC(C)(C)O)C(=O)N[C@@H](Cc1ccc(S(C)(=O)=O)cc1)C(=O)N[C@@H](CC1CCCC1)C(=O)[C@H]1CO1
(Q) COc1ccc(C[C@H](NC(=O)[C@H](C)NC(=O)Cc2cc(C)no2)C(=O)N[C@@H](CC2CCCC2)C(=O)[C@@]2(C)CO2)cc1
Lookup: Kindly identify which of P and Q has the larger recorded pIC50 value. Answer = label.
Found: P

====

Assay Remarks: Solubility pH 7
Assay type: physicochemical
Conditions: pH 7, aqueous buffer
Property Name: solubility (µg/mL)

Smiles Code	Reported Result
COc1ccc(C[C@H](NC(=O)[C@@H](C)NC(=O)c2ccno2)C(=O)N[C@@H](CC2CCCC2)C(=O)[C@@]2(C)CO2)cc1	65.9

(1) COc1ccc(C[C@H](NC(=O)[C@@H](C)NC(=O)c2nc3ccccc3n2C)C(=O)N[C@@H](CC2CCCC2)C(=O)[C@@]2(C)CO2)cc1
(2) COc1ccc(C[C@H](NC(=O)[C@@H](C)NC(=O)CC(C)(C)O)C(=O)N[C@@H](Cc2ccc(C)cc2)C(=O)[C@H]2CO2)cc1
(3) COc1ccc(C[C@H](NC(=O)[C@H](C)NC(=O)c2cc(C)no2)C(=O)N[C@@H](CC2CCCC2)C(=O)[C@@]2(C)CO2)cc1
Lookup: Order the items by recorded solubility; the first position goes to the largest value. Please respond with the labels ordered as the question requires.
Found: 2, 3, 1

(I) COc1ccc(C[C@H](NC(=O)[C@@H](C)NC(=O)c2ccccn2)C(=O)N[C@@H](CC2CCCC2)C(=O)[C@@]2(C)CO2)cc1
(II) COc1ccc(C[C@H](NC(=O)[C@@H]2CC(=O)N2)C(=O)N[C@@H](Cc2ccccc2)C(=O)[C@@]2(C)CO2)cc1
Lookup: Looking only at measured solubility, which entry is lower, I or II ? Field: selected label. Fill in the label of the entry you choose.
Found: I

====

System: β5 (Homo sapiens, UniProt P20618+P28074)
Construct: endogenous in cells; host or cells: MOLT-4
Assay Remarks: ProCISE proteasome subunit assay, β5
Type: biochemical
Conditions: MOLT4 lysate Hu 1 h
Property Name: IC50 (µM)

Compound	Property Name	Reported Result
COc1ccc(C[C@H](NC(=O)[C@@H](C)NC(=O)C2=Cc3ccccc3C2)C(=O)N[C@@H](CC2CCCC2)C(=O)[C@@]2(C)CO2)cc1 [Compound C-2036]	IC50	4.86

(a) CCOCC(=O)N[C@H](C)C(=O)N[C@@H](Cc1ccc(OC)cc1)C(=O)N[C@@H](CC1CCCC1)C(=O)[C@@]1(C)CO1 [Compound C-2021]
(b) COc1ccc(C[C@H](NC(=O)[C@H](C)NC(=O)CC(C)(C)O)C(=O)N[C@@H](CC2CCCC2)C(=O)[C@@]2(C)CO2)cc1 [Compound C-2027]
Lookup: Lab note: record which item had the higher IC50, a or b . Lab note: record the label of whichever item you select.
Found: a

====

Assay Remarks: Solubility pH 7
Type: physicochemical
Conditions: pH 7, aqueous buffer
Property Name: solubility (µg/mL)

Molecule	Value Units	solubility
COc1ccc(C[C@H](NC(=O)[C@H](C)NC(=O)CC(C)(C)O)C(=O)N[C@@H](CC2CCCC2)C(=O)[C@@]2(C)CO2)cc1	µg/mL	753
COc1ccc(C[C@H](NC(=O)[C@@H](C)NC(=O)CC(C)(C)O)C(=O)N[C@@H](Cc2ccccc2)C(=O)[C@@]2(C)CO2)cc1	µg/mL	3730

(a) COc1ccc(C[C@H](NC(=O)[C@@H](C)NC(=O)c2cc(C)no2)C(=O)N[C@@H](CC2CCCC2)C(=O)[C@@]2(C)CO2)cc1
(b) COc1ccc(C[C@H](NC(=O)[C@@H](C)NC(=O)C[C@H](C)O)C(=O)N[C@@H](CC2CCCC2)C(=O)[C@@]2(C)CO2)cc1
Lookup: # returns the entry with the larger solubility; inputs a and b Write down the label attached to your selection.
Found: b

====

System: LMP2 (Homo sapiens, UniProt P28065+P40306)
Construct: endogenous in cells; host or cells: MOLT-4
Assay Remarks: ProCISE proteasome subunit assay, LMP2
Format: biochemical
Conditions: ProCISE, MOLT-4 lysate, 1 hour at 25° C.; read-out: LMP2
Text: This assay was used to assess the inhibitory activity against each of LMP2, LMP7, MECL1, β1, β2, and β5. Briefly, test compounds were serially diluted in DMSO at 100× concentration, then diluted to 10× in aqueous hypotonic lysis buffer. […] A chemiluminescent substrate was used to generate signal associated with HRP binding, which was detected on a plate reader. […]
Property Name: IC50 (nM)
Your answer is read as nM, so omit the unit and give the number.

Lookup: Checklist item: IC50 tested on LMP2 (Homo sapiens, UniProt P28065+P40306), entry COc1ccc(C[C@H](NC(=O)c2cccc(=O)[nH]2)C(=O)N[C@@H](Cc2ccccc2)C(=O)[C@@]2(C)CO2)cc1 , value?
Found: 109
